Tested on: Lactobacillus casei
Assay: MIC against normal gut microbiota
Assay type: cell-based
Conditions: Lactobacillus casei (1 strain)
Each entry below lists one item and its recorded MIC Range value.

1. C[C@@H](c1nc(-c2ccc(C#N)cc2)cs1)[C@](O)(Cn1cncn1)c1ccc(F)cc1F [Ravuconazole]; >256 µg/mL
2. C[C@@H]1CN2c3c(cc4c(N5C(=O)OC[C@@H]5C)noc4c3F)CC3(C(=O)NC(=O)NC3=O)[C@H]2[C@H](C)O1 [Zoliflodacin]; <0.125 µg/mL
3. C[C@@H](c1nc(-c2ccc(C#N)cc2)cs1)[C@](O)(Cn1cncn1)c1cc(F)ccc1F [Isavuconazole]; >256 µg/mL

Please fill in: MIC Range reported for CCC(C)n1ncn(-c2ccc(N3CCN(c4ccc(OCC5COC(Cn6cncn6)(c6ccc(Cl)cc6Cl)O5)cc4)CC3)cc2)c1=O (stereo not shown) [Itraconazole] = >256 µg/mL
